Hey, just so you know, these numbers are from patent US20250313563A1.

Tested On: GSK3b (GST-full length GSK3b) (Homo sapiens (Human), UniProt P49841)
Sequence (P49841 whole entry): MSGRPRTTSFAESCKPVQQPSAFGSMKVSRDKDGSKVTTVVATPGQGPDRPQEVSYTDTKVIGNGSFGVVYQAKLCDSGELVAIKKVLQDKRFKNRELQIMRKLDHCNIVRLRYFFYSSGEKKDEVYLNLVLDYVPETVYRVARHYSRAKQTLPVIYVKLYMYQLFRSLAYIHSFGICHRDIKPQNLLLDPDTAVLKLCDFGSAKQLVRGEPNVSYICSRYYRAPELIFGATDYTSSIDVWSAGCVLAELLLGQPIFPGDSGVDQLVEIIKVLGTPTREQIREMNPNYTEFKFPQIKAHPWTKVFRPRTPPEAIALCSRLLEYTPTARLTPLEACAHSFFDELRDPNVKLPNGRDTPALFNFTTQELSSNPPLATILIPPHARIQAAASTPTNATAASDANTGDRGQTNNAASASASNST
Test Summary: GSK3b TR-FRET kinase assay
Type: biochemical
Condition Notes: read-out: GSK3-B (TR-FRET 1 mM ATP); GMean; IC50; 1 mM ATP; geometric mean
pIC50: −log10 of the molar value.
Measurement Label: pIC50

Here's what some known entries look like.
Compound | Tested On | pIC50
CN1CC2(C3=C(CC(C)(C)CC3=O)Nc3n[nH]c(CC(C)(C)C)c32)c2ccccc21 (stereo not drawn) [Compound 125979] | GSK3b (GST-full length GSK3b) (Homo sapiens (Human), UniProt P49841) | 5.30 to 6.00
CCC1(c2cccc(-c3cnc(C)n3C)c2)C2=C(CC(C)(C)CC2=O)Nc2n[nH]cc21 (stereo not drawn) [Compound 943531] | GSK3b (GST-full length GSK3b) (Homo sapiens (Human), UniProt P49841) | < 5.30
CCC1(c2cccc(-c3ccnn3C)c2)C2=C(CC(C)(C)CC2=O)Nc2n[nH]c(C)c21 (stereo not drawn) [Compound 913023] | GSK3b (GST-full length GSK3b) (Homo sapiens (Human), UniProt P49841) | 6.00 to 7.00
CC[C@]1(c2cccc(C(F)F)c2)C2=C(CC(C)(C)NC2=O)Nc2n[nH]cc21 [Compound 949006] | GSK3b (GST-full length GSK3b) (Homo sapiens (Human), UniProt P49841) | < 5.30
CC[C@@]1(c2cccc(-c3cncn3C)c2)C2=C(CC(C)(C)CC2=O)Nc2n[nH]c(C)c21 [Compound 913032] | GSK3b (GST-full length GSK3b) (Homo sapiens (Human), UniProt P49841) | ≥ 7.00
CCC1(c2cccc(-c3ccncc3)c2)C2=C(CC(C)(C)CC2=O)Nc2n[nH]c(C(F)(F)F)c21 (stereo not drawn) [Compound 917292] | GSK3b (GST-full length GSK3b) (Homo sapiens (Human), UniProt P49841) | < 5.30

Request: I would be grateful if you could share the reported pIC50 for Cn1cncc1-c1cccc([C@@]2(C)C3=C(CC(C)(C)CC3=O)Nc3n[nH]c(CC(C)(C)C)c32)c1 [Compound 126015] .
Result: < 5.30

Request: I would be grateful if you could share the reported pIC50 for CC[C@]1(c2cccc(-c3cn[nH]c3)c2)C2=C(CC(C)(C)NC2=O)Nc2n[nH]c(C(F)(F)F)c21 [Compound 948307] .
Result: ≥ 7.00

Request: I would be grateful if you could share the reported pIC50 for CCC1(c2cccc(-c3cn(C)nc3C)c2)C2=C(CC(C)(C)N(C)C2=O)Nc2n[nH]cc21 (stereo not drawn) [Compound 949005] .
Result: 5.30 to 6.00

Request: I would be grateful if you could share the reported pIC50 for CC(C)(C)Cc1[nH]nc2c1C(C)(c1cccc(N3CCOCC3)c1)C1=C(CC(C)(C)CC1=O)N2 (stereo not drawn) [Compound 126400] .
Result: 6.00 to 7.00

Request: I would be grateful if you could share the reported pIC50 for CCC1(c2cccc(C(F)F)c2)C2=C(CC(C)(C)NC2=O)Nc2n[nH]c(C(F)(F)F)c21 (stereo not drawn) [Compound 951948] .
Result: 6.00 to 7.00

Request: I would be grateful if you could share the reported pIC50 for CCC1(c2cccc(-c3ccnc(C)c3C)c2)C2=C(CC(C)(C)NC2=O)Nc2n[nH]c(C(F)(F)F)c21 (stereo not drawn) [Compound 948185] .
Result: ≥ 7.00

Request: I would be grateful if you could share the reported pIC50 for CN1CC2(C3=C(CC(C)(C)CC3=O)Nc3n[nH]c(C4CC(F)(F)C4)c32)c2ccccc21 (stereo not drawn) [Compound 119047] .
Result: 6.00 to 7.00

Request: I would be grateful if you could share the reported pIC50 for CC[C@]1(c2cccc(-c3c(F)cncc3Cl)c2)C2=C(CC(C)(C)NC2=O)Nc2n[nH]cc21 [Compound 948371] .
Result: 6.00 to 7.00

Request: I would be grateful if you could share the reported pIC50 for CCC1(c2cccc(-c3ccnc(C)c3C)c2)C2=C(CC(C)(C)CC2=O)Nc2n[nH]c(C(F)(F)F)c21 (stereo not drawn) [Compound 947329] .
Result: ≥ 7.00
